# Test system: HEK-293T
# Assay Text: Incucyte cell viability with HEK293T; further: unitless GR value; below 1 slowed growth and below 0 cell loss
# Assay type: toxicity, cell-based
# Assay Conditions: human, 12 h, 10 µM, compound concentration 10 uM, replicate number 2, timepoint 12 hours
Readout Label: Growth Rate
Enter the number alone.

Can you look up Growth Rate on HEK-293T for `O=c1c2cccn2c2ccccc2n1CCCN1CCC(c2ccc(Cl)cc2)CC1` ? 0.39

Param readout= Growth Rate; system= HEK-293T; entry= `COC[C@@H](CC(C)C)NC1=N/C(=C\c2ccc3ncsc3c2)C(=O)N1C` ; returns value. 0.41

Look up Growth Rate with HEK-293T for this compound: `COc1ccccc1N1CCN(C[C@@H](C(=O)NC(C)(C)C)c2ccccc2)CC1.Cl.Cl` 0.79

----------
# Test system: Fibroblast
# Assay Text: Incucyte cell viability with human fibroblast; further: unitless GR value; below 1 slowed growth and below 0 cell loss
# Assay type: toxicity, cell-based
# Assay Conditions: 6 h, 10 µM, compound concentration 10 uM, replicate number 1, timepoint 6 hours
Field: Growth Rate. Provide a value for each of the molecules that follow.
Write no unit; give the number alone.

Quick check: Growth Rate of Cl.Cl.OCCOCCN1CCN(C(c2ccccc2)c2ccc(Cl)cc2)CC1 (stereo not given) [HYDROXYZINE HYDROCHLORIDE] ? 0.49

Name the recorded Growth Rate for `COc1ccncc1C(=O)NC(=O)Nc1ccc(-c2ccccc2)c(C(F)(F)F)c1` . -0.12

Data request, read-out Growth Rate, for `CC(C)(O)C(=O)N1CCN(c2ccc(C(F)(F)F)c(C3=C(c4c[nH]c5ccccc45)C(=O)NC3=O)c2)CC1` -0.69

Which value of Growth Rate has been reported for `CC[C@H]1CN2CCc3cc(OC)c(OC)cc3[C@@H]2C[C@@H]1C[C@H]1NCCc2cc(OC)c(OC)cc21` in the records? -0.4

Please report the recorded Growth Rate for `CCC(=O)NC[C@@H]1C[C@H]1c1cccc2c1CCO2` . 0.35

Requested field: Growth Rate. Item: `COc1cc2c(Oc3ccc(NC(=O)C4(C(=O)Nc5ccc(F)cc5)CC4)cc3F)ccnc2cc1OCCCN1CCOCC1` -0.99

Can you share its Growth Rate? I mean this molecule: `C[C@H](N)Cn1ccc2cc(F)c(Cl)cc21.O=C(O)/C=C/C(=O)O` 0.43

Please report the recorded Growth Rate for `CC[C@H]1OC(=O)[C@H](C)[C@@H](O[C@H]2C[C@@](C)(OC)[C@@H](O)[C@H](C)O2)[C@H](C)[C@@H](O[C@@H]2O[C@H](C)C[C@H](N(C)C)[C@H]2O)[C@@]2(C)CC(C)=C(O2)[C@H](C)[C@@H](O)[C@]1(C)O` . 0.46

Which Growth Rate is reported for this molecule? `Cc1nc(C#Cc2cccnc2)cs1.Cl` 0.49

# input molecule: `O=c1ccc2ccc(OCCCCN3CCN(c4cccc5sccc45)CC3)cc2[nH]1` ; wanted: its Growth Rate -0.55

----------
# Test system: Fibroblast
# Assay Text: Incucyte cell viability with human fibroblast; further: unitless GR value; below 1 slowed growth and below 0 cell loss
# Assay type: toxicity, cell-based
# Assay Conditions: 12 h, 10 µM, compound concentration 10 uM, replicate number 2, timepoint 12 hours
The label is class 1 for Growth Rate below 0.8 and class 0 for Growth Rate equal to or exceeding 0.8.

Does the reported Growth Rate of CCn1c(-c2nc3cc(C(=O)N4CCCC(N)C4)ccc3n2C)cc2ccccc21.Cl (stereo not given) stay below 0.8? class 1

Please determine if C[C@@H]1CN(Cc2ccc(F)cc2)CCN1C(=O)COc1ccc(Cl)cc1NC(N)=O [BX 471 FREE BASE] is below 0.8 in terms of Growth Rate. class 1

Input `CN[C@@H](C)C(=O)N[C@H]1CCCC[C@H]2CC[C@@H](C(=O)N[C@@H](c3ccccc3)c3cn(CCCCc4ccc(CCCCn5cc([C@@H](NC(=O)[C@@H]6CC[C@@H]7CCCC[C@H](NC(=O)[C@H](C)NC)C(=O)N76)c6ccccc6)nn5)cc4)nn3)N2C1=O` ; condition: Growth Rate strictly below 0.8. Does it hold? class 1

Growth Rate strictly < 0.8 for this compound? COc1cc2nc(N3CCN(C(=O)C4CCCO4)CC3)nc(N)c2cc1OC.Cl.O.O (stereo not given) [TERAZOSIN HYDROCHLORIDE] class 0

Hi there! Is Growth Rate for `CCCCC(=O)N(Cc1ccc(-c2ccccc2-c2nnn[nH]2)cc1)[C@H](C(=O)O)C(C)C` below 0.8, do you know? class 0

Regarding O=C(O)CCCCCC[C@H]1C(=O)NC(=O)N1CCC(O)C1CCCCC1 (stereo not given in full) , kindly confirm whether its Growth Rate is beneath 0.8. class 0

Could you please tell me whether Growth Rate recorded for `CN(C)CCn1cc(S(=O)(=O)c2cccc(F)c2)c2cccnc21.Cl.Cl` is less than 0.8? class 1

Dear colleague, could you confirm whether Growth Rate of `COc1cc2nc(N3CCN(C(=O)COc4c(OC)cccc4C(C)C)CC3)nc(N)c2cc1OC.Cl.Cl` falls below 0.8? Thanks. class 1

Please state whether Growth Rate is below 0.8 for `CCCCCCCCCCCCC/C=C/[C@@H](O)[C@@H](N)COP(=O)(O)O` class 1

These data points were gathered from ChEMBL document CHEMBL5058564.
